Assay Info: in vitro
Applied Conditions: human, microsomes
Threshold check on CLint scaled at 1.5 h: at or above 40 mL/min/kg gives Y, strictly below gives N.

Previously resolved entries follow.
Smiles Entry	Group Label
Cc1ccc(S(=O)(=O)N2CCC(C(=O)Nc3cccc4cccnc34)CC2)c(C)c1	Y
Cc1ccc(S(=O)(=O)N2CCC(C(=O)Nc3ccc(S(=O)(=O)C(F)(F)F)cc3)CC2)c(C)c1	N
COC(=O)c1ccc(NC(=O)C2CCN(S(=O)(=O)c3ccc(C)cc3C)CC2)cc1	Y
Cc1ccc(S(=O)(=O)N2CCC(C(=O)NC3CCCC3)CC2)c(C)c1	Y
Cc1ccc(S(=O)(=O)N2CCC(C(=O)Nc3ccc(C(C)C)cc3)CC2)c(C)c1	Y

# check: CLint scaled at 1.5 h of `Cc1ccc(S(=O)(=O)N2CCC(C(=O)Nc3cccc4cnccc34)CC2)c(C)c1` is greater than or equal to 40 mL/min/kg
N

Check if CLint scaled at 1.5 h >= 40 mL/min/kg (inclusive). Item: `Cc1ccc(S(=O)(=O)N2CCC(C(=O)Nc3ccc4c(c3)OCO4)CC2)c(C)c1`
N

Item `Cc1ccc(S(=O)(=O)N2CCC(C(=O)Nc3ccc4cc(C(=O)O)ccc4c3)CC2)c(C)c1` with CLint scaled at 1.5 h of 40 mL/min/kg or above?
N
